system tested: Marinobacter sp. msLacBP6 variant 187C, F68M, SEQ ID NO: 50, Badan conjugate
protocol notes: Fluorescence titration of conjugate (affinity tuning)
Type: binding
assay setup: read-out: appKd (lactate); λ1 464, λ2 527 nm
measure name: pKd
// pKd is dimensionless: -log10 of concentration (M)

# query: pKd of entry C[C@H](O)C(=O)O [lactate] 3.30

* * *

system tested: Marinobacter sp. msLacBP6 variant Y187C (187C), SEQ ID NO: 38, Acrylodan conjugate
protocol notes: Fluorescence titration of conjugate
Assay type: binding
assay setup: read-out: appKd (lactate); λ1 452, λ2 582 nm (FIG. 5A, Table 7)
measure name: Kd
Could you write the number and then its unit?

Marinobacter sp. msLacBP6 variant Y187C (187C), SEQ ID NO: 38, Acrylodan conjugate / Kd / C[C@H](O)C(=O)O [lactate] : value? 400 µM

Reference for the values: patent US11099176B2
